Entry source: patent US10352938B2

# TEST: Calculation of Eu luminescence parameters (radiative lifetime, rate constants, efficiencies)
# Format: physicochemical
# RUN_CONDITIONS: non-radiative rate constant
# Description: In this equation, the ηISC ηET term is termed the sensitization efficiency, ηsens (ηsens=ηISC ηET). All the luminescence parameters τR (the pure radiative luminescence lifetime), kR and knR (the radiative and non-radiative constant rate) can be deduced. These parameters were calculated for five of the octadentate complexes and the model complex that present only one species in solution at pH=7.4 and are reported in Table 6.
MEASUREMENT_LABEL: knr (s⁻¹)
Report as a plain number; the unit s⁻¹ is understood.

A selection of reference data follows.
{"MOLECULE": "O=C(NCCN(CCNC(=O)c1cccc(=O)n1O)CCOCCOCCN(CCNC(=O)c1cccc(=O)n1O)CCNC(=O)c1cccc(=O)n1O)c1cccc(=O)n1O", "knr, s⁻¹": 869}
{"MOLECULE": "O=C(NCCN(CCNC(=O)c1cccc(=O)n1O)CCOCCOCCOCCN(CCNC(=O)c1cccc(=O)n1O)CCNC(=O)c1cccc(=O)n1O)c1cccc(=O)n1O", "knr, s⁻¹": 882}
{"MOLECULE": "O=C(NCCN(CCNC(=O)c1cccc(=O)n1O)CCOCCOCCOCCOCCOCCN(CCNC(=O)c1cccc(=O)n1O)CCNC(=O)c1cccc(=O)n1O)c1cccc(=O)n1O.[Eu] [[Eu(H(17O5,2)-1,2HOPO)]^0]", "knr, s⁻¹": 679}

Continue with the molecule presented below.
Record O=C(NCCN(CCNC(=O)c1cccc(=O)n1O)CCOCCOCCOCCOCCN(CCNC(=O)c1cccc(=O)n1O)CCNC(=O)c1cccc(=O)n1O)c1cccc(=O)n1O.[Eu] [[Eu(H(14O4,2)-1,2HOPO)]^0] . Reported knr: 674
